Hey, just so you know, these numbers are from ChEMBL document CHEMBL2390920.

biological target: GABA-A receptor; agonist GABA site; assay: Inhibition of GABAA receptor (unknown origin)

# compound, IC50
data = [
    ("O=C(O)c1cc(=O)c2ccccc2[nH]1 [TRANSTORINE]", "2900 µM"),
]

----------
target: G protein-coupled receptor GPR35 (Rattus norvegicus); test: Agonist activity at rat GPR35 expressed in CHO cells assessed as induction of beta-arrestin recruitment at 10 uM after 90 mins by beta-galactosidase reporter gene assay relative to zaprinast; type: cell-based
Reported Emax is given for each of the following molecules.

# chemical-string, Emax (%)
measured = [
    ("O=C(Nc1cc(Br)cc2c(=O)cc(C(=O)O)oc12)c1ccccc1", 75),
    ("CCCOc1ccc(C(=O)Nc2cccc3c(=O)cc(C(=O)O)oc23)cc1", 80),
    ("COc1ccc(C(=O)Nc2cc(Br)cc3c(=O)cc(C(=O)O)oc23)cc1", 88),
    ("COc1ccc(C(=O)Nc2cc(Br)cc3c(=O)cc(C(=O)O)oc23)cc1OC", 106),
    ("O=C(Nc1cc(Cl)cc2c(=O)cc(C(=O)O)oc12)c1ccc([N+](=O)[O-])cc1", 115),
]
